Each recorded value in this set is attributed to paper PMC10079658.

target_or_test_system: His-Hsp70 (Heat Shock Protein 70) (UniProt P0DMV8)
Sequence (P0DMV8 whole entry): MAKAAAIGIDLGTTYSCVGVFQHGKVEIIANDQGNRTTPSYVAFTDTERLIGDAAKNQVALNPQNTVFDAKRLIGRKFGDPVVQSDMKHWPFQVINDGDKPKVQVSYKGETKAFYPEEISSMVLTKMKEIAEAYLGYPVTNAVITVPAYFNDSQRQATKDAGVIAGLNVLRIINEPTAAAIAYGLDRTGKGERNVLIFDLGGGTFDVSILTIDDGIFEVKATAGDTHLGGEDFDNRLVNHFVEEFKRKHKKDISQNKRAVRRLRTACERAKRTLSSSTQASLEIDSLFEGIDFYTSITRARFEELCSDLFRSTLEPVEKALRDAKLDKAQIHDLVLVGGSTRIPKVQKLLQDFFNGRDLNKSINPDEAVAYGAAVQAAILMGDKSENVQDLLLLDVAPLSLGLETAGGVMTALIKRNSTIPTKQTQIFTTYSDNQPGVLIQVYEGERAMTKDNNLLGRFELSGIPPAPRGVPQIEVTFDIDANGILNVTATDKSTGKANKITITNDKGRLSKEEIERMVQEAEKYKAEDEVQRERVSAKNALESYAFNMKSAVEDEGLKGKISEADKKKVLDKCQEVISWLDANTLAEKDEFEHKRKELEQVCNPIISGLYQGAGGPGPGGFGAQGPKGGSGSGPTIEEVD
assay_details: BLI
measurement_conditions: none (natural dA); 25 mM HEPES, 5 mM MgCl2, 300 mM KCl, pH 7.4 (BLI) or 7.5 (SELEX), 24 °C; plate assay washes with 1% BSA, 0.05% Tween 20; aptamers folded 95 °C 5 min then …

input_sequence | bound_operator | Kd / µM
GCAGCAGAGATAGACGCTAAGACCTCATAGTCCTTCTAATTATACTCCAATGGCATAGCTGGCAC [HSNat-9] | = | 4.65
GCAGCAGAGATAGACGCTATTCTCTAGACCTTCTAATTTACATACTCCAATGGCATAGCTGGCAC [HSNat-2] | > | 5

====

target_or_test_system: His-Hsp70 (Heat Shock Protein 70)
assay_details: BLI
measurement_conditions: all A after nt 19 plus those marked A* are 7-phenylbutyl-7-deaza-dA, except none in 5' primer region (nt 1-19); printed A26 and later marked A*; 25 mM HEPES, 5 mM MgCl2, 300 mM KCl, pH 7.4 (BLI) or 7.5 (SELEX), 24 °C; plate assay washes with 1% BSA, 0.05% Tween 20; aptamers folded 95 °C 5 min then …
pKd: −log10 of the molar value.

input_sequence | pKd
GCAGCAGAGATAGACGCTATTCTCTAGACCTTCTAATTTACATACTCCAATGGCATAGCTGGCAC [HSc-2] | 7.18

====

Test system: His-CPA (C-terminus of RNA polymerase subunit PA) (Influenza A)
assay_details: fluorescence plate binding assay
measurement_conditions: all A are 7-phenylbutyl-7-deaza-dA (A*); 25 mM HEPES, 5 mM MgCl2, 300 mM KCl, pH 7.4 (BLI) or 7.5 (SELEX), 24 °C; plate assay washes with 1% BSA, 0.05% Tween …; aptamers folded 95 °C 5 min then cooled

input_sequence | target_or_test_system | Kd / nM
AGACCTCATAGTCCTTCTAATTATACTCCAATGGCATAGCTGGCAC [HSc-9.1] | His-CPA (C-terminus of RNA polymerase subunit PA) (Influenza A) | 1000

====

target_or_test_system: His-Hsp70 (Heat Shock Protein 70) (UniProt P0DMV8)
assay_details: BLI
measurement_conditions: all A after nt 19 are 7-phenylbutyl-7-deaza-dA (A*); 25 mM HEPES, 5 mM MgCl2, 300 mM KCl, pH 7.4 (BLI) or 7.5 (SELEX), 24 °C; plate assay washes with 1% BSA, 0.05% Tween 20; aptamers folded 95 °C 5 min then …
property: Kd (nM)

input_sequence | property | observed_result
GCAGCAGAGATAGACGCTAAGACCTCATAGTCCTTCTAATTATACTCCAATGGCATAGCTGGCAC [HSc-9] | Kd | 36

====

Tested on: His-SUMO
assay_details: fluorescence plate binding assay
measurement_conditions: all A are 7-phenylbutyl-7-deaza-dA (A*); 25 mM HEPES, 5 mM MgCl2, 300 mM KCl, pH 7.4 (BLI) or 7.5 (SELEX), 24 °C; plate assay washes with 1% BSA, 0.05% Tween …; aptamers folded 95 °C 5 min then cooled
pKd: −log10 of the molar value.
property: pKd

input_sequence | target_or_test_system | property | observed_result
AGACCTCATAGTCCTTCTAATTATACTCCAATGGCATAGCTGGCAC [HSc-9.1] | His-SUMO | pKd | 5.95

====

target_or_test_system: His-Hsp70 (Heat Shock Protein 70) (UniProt P0DMV8)
assay_details: fluorescence plate binding assay
measurement_conditions: none (natural dA); 25 mM HEPES, 5 mM MgCl2, 300 mM KCl, pH 7.4 (BLI) or 7.5 (SELEX), 24 °C; plate assay washes with 1% BSA, 0.05% Tween 20; aptamers folded 95 °C 5 min then …
Property: Kd; scope: individual sequences

input_sequence | target_or_test_system | Kd
GCAGCAGAGATAGACGCTAAGACCTCATAGTCCTTCTAATTATACTCCAATGGCATAGCTGGCAC [HSNat-9] | His-Hsp70 (Heat Shock Protein 70) (UniProt P0DMV8) | > 10 µM
GCAGCAGAGATAGACGCTATTCTCTAGACCTTCTAATTTACATACTCCAATGGCATAGCTGGCAC [HSNat-2] | His-Hsp70 (Heat Shock Protein 70) (UniProt P0DMV8) | > 10 µM

====

target_or_test_system: His-Hsp70 (Heat Shock Protein 70)
assay_details: fluorescence plate binding assay
measurement_conditions: all A after nt 19 are 7-phenylbutyl-7-deaza-dA (A*); 25 mM HEPES, 5 mM MgCl2, 300 mM KCl, pH 7.4 (BLI) or 7.5 (SELEX), 24 °C; plate assay washes with 1% BSA, 0.05% Tween 20; aptamers folded 95 °C 5 min then …

input_sequence | target_or_test_system | Kd / nM
GCAGCAGAGATAGACGCTAAGACCTCATAGTCCTTCTAATTATACTCCAATGGCATAGCTGGCAC [HSc-9] | His-Hsp70 (Heat Shock Protein 70) | 29.1

====

System: His-NPA (N-terminus of RNA polymerase subunit PA) (Influenza A)
assay_details: fluorescence plate binding assay
measurement_conditions: all A are 7-phenylbutyl-7-deaza-dA (A*); 25 mM HEPES, 5 mM MgCl2, 300 mM KCl, pH 7.4 (BLI) or 7.5 (SELEX), 24 °C; plate assay washes with 1% BSA, 0.05% Tween …; aptamers folded 95 °C 5 min then cooled
pKd: −log10 of the molar value.
property: pKd

input_sequence | observed_result
AGACCTCATAGTCCTTCTAATTATACTCCAATGGCATAGCTGGCAC [HSc-9.1] | 5.90

====

Test system: His-SUMO
assay_details: BLI
measurement_conditions: all A are 7-phenylbutyl-7-deaza-dA (A*); 25 mM HEPES, 5 mM MgCl2, 300 mM KCl, pH 7.4 (BLI) or 7.5 (SELEX), 24 °C; plate assay washes with 1% BSA, 0.05% Tween …; aptamers folded 95 °C 5 min then cooled

input_sequence | Kd [nM]
AGACCTCATAGTCCTTCTAATTATACTCCAATGGCATAGCTGGCAC [HSc-9.1] | 1320

====

target_or_test_system: His-Hsp70 (Heat Shock Protein 70)
assay_details: fluorescence plate binding assay
measurement_conditions: error printed as 6 in Table 6; all A after nt 19 plus those marked A* are 7-phenylbutyl-7-deaza-dA, except none in 5' primer region (nt 1-19); printed A26 and later marked A*; 25 mM HEPES, 5 mM MgCl2, 300 mM KCl, pH 7.4 (BLI) or 7.5 (SELEX), 24 °C; plate assay washes with 1% BSA, 0.05% Tween 20; aptamers folded 95 °C 5 min then …

input_sequence | Kd
GCAGCAGAGATAGACGCTATTCTCTAGACCTTCTAATTTACATACTCCAATGGCATAGCTGGCAC [HSc-2] | 245 nM

====

Test system: His-CPA (C-terminus of RNA polymerase subunit PA) (Influenza A)
assay_details: BLI
measurement_conditions: all A are 7-phenylbutyl-7-deaza-dA (A*); 25 mM HEPES, 5 mM MgCl2, 300 mM KCl, pH 7.4 (BLI) or 7.5 (SELEX), 24 °C; plate assay washes with 1% BSA, 0.05% Tween …; aptamers folded 95 °C 5 min then cooled
property: Kd

input_sequence | target_or_test_system | property | observed_result
AGACCTCATAGTCCTTCTAATTATACTCCAATGGCATAGCTGGCAC [HSc-9.1] | His-CPA (C-terminus of RNA polymerase subunit PA) (Influenza A) | Kd | 1240 nM

====

System: His-NPA (N-terminus of RNA polymerase subunit PA) (Influenza A)
assay_details: BLI
measurement_conditions: all A are 7-phenylbutyl-7-deaza-dA (A*); 25 mM HEPES, 5 mM MgCl2, 300 mM KCl, pH 7.4 (BLI) or 7.5 (SELEX), 24 °C; plate assay washes with 1% BSA, 0.05% Tween …; aptamers folded 95 °C 5 min then cooled
pKd: −log10 of the molar value.

input_sequence | pKd
AGACCTCATAGTCCTTCTAATTATACTCCAATGGCATAGCTGGCAC [HSc-9.1] | 5.81
